Assay: recombinant UMI read abundance after kanamycin selection (control-corrected) (log10(CPM+1)); higher = more efficient recombination; extreme values may be limits of the assay; sequences stand for … in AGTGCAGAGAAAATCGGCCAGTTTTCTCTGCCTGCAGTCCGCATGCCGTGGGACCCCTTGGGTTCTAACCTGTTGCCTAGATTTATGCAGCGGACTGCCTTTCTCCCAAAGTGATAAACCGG…AGGTTGGTTTCACT; site = the 11-nt donor;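 also: IS621 bridge recombinase in Escherichia coli cells against a fixed T5 target plasmid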
Task for the reader: assign each of the following sequences its reported recombinant UMI read abundance (log10).
Enter a number only.

Record summary for CTTTACGCATGGACCGGTTTTCCCGGTAATCCGTATTTGTT (site CTTTACGCTAA) : reported recombinant UMI read abundance (log10) = 0.6

Record summary for AATGTGTCATGGACCGGTTTTCCCGGTAATCCGTATTTGAG (site AATGTGTCTGT) : reported recombinant UMI read abundance (log10) = 0.801

Record summary for ATACACACATGGACCGGTTTTCCCGGTAATCCGTATTTGGG (site ATACACACTCC) : reported recombinant UMI read abundance (log10) = 0.537

Record summary for CAAGCCGCATGGACCGGTTTTCCCGGTAATCCGTATTTGCT (site CAAGCGGCTAG) : reported recombinant UMI read abundance (log10) = 0.00324

Record summary for ACTCTCTCATGGACCGGTTTTCCCGGTAATCCGTATTTGCA (site ACTCTCTCTTG) : reported recombinant UMI read abundance (log10) = 3.19

Record summary for GTAGTCTCATGGACCGGTTTTCCCGGTAATCCGTATTTGCG (site GTAGTCGCTCG) : reported recombinant UMI read abundance (log10) = 0.176

Record summary for GTAGCTACATGGACCGGTTTTCCCGGTAATCCGTATTTGAC (site GTAGGTACTGT) : reported recombinant UMI read abundance (log10) = 0

Record summary for CGTTTGGCATGGACCGGTTTTCCCGGTAATCCGTATTTGCT (site CGTTTGGCTTG) : reported recombinant UMI read abundance (log10) = 0

Record summary for TTCGCCTCATGGACCGGTTTTCCCGGTAATCCGTATTTGAT (site TTCGCCTCTAT) : reported recombinant UMI read abundance (log10) = 0.521
